Source listed as ChEMBL document CHEMBL2069259.

molecular target: CYP1A2 (Homo sapiens); experiment: Inhibition of human CYP1A2 assessed as ratio of IC50 in absence of NADPH to IC50 for presence of NADPH using ethoxyresorufin as substrate after 30 mins
Sequence (P05177 whole entry): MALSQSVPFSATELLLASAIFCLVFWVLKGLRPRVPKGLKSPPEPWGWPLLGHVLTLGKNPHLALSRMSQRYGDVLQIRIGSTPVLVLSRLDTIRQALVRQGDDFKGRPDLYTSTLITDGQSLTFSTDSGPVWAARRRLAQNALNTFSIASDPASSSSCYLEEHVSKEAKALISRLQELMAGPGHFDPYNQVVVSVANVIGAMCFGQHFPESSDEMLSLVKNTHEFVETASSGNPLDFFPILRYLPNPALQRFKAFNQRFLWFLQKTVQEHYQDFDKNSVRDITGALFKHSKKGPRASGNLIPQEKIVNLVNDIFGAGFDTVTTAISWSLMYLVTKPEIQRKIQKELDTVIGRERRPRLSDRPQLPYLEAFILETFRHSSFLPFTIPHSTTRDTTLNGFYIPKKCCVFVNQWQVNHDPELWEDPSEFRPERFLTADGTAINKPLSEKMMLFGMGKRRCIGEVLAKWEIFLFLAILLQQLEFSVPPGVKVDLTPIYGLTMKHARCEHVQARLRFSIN
Measured Property: IC50 shift at 0.5 h

Use the examples below as a reference point.
                                   molecule    measured_property  recorded_result
0  CC(C)C(=O)Nc1ccc([N+](=O)[O-])c(C(F)(F)F)c1 [FLUTAMIDE]  IC50 shift at 0.5 h              < 2
1    CCN(CC)CCNc1ccc(CO)c2sc3ccccc3c(=O)c12  IC50 shift at 0.5 h              > 5
2  CCN(CC)CC#CCOC(=O)C(O)(c1ccccc1)C1CCCCC1 (centres undefined)  IC50 shift at 0.5 h              > 2

Here is another molecule to look at.
Sample CC(C)OC(=O)C(C)(C)Oc1ccc(C(=O)c2ccc(Cl)cc2)cc1 [FENOFIBRATE] — what was its IC50 shift at 0.5 h?
> 5
